All figures here come from patent US6277829A.

assay: in vivo; parameters: species or system white New Zealand rabbits; conditions: rabbit, topical or ocular, Ct (tissue concentration of azithromycin), Average
ENDPOINT: concentration at 6 h (ng/g)
Value expressed in ng/g; do not type the unit.

Per the record, CC[C@H]1OC(=O)[C@H](C)[C@@H](O[C@H]2C[C@@](C)(OC)[C@@H](O)[C@H](C)O2)[C@H](C)[C@@H](O[C@@H]2O[C@H](C)C[C@H](N(C)C)[C@H]2O)[C@](C)(O)C[C@@H](C)CN(C)[C@H](C)[C@@H](O)[C@]1(C)O has concentration at 6 h of 250000

###

experiment: in vivo; conditions: rabbit, topical or ocular, Ct (tissue concentration of azithromycin)
ENDPOINT: concentration at 24 h
Could you kindly put the unit after your number?

Per the record, CC[C@H]1OC(=O)[C@H](C)[C@@H](O[C@H]2C[C@@](C)(OC)[C@@H](O)[C@H](C)O2)[C@H](C)[C@@H](O[C@@H]2O[C@H](C)C[C@H](N(C)C)[C@H]2O)[C@](C)(O)C[C@@H](C)CN(C)[C@H](C)[C@@H](O)[C@]1(C)O has concentration at 24 h of 216000 ng/g
